Measured values drawn from the supplement of paper PMC10266784 for this set.

B1: library; numbered along this chain (parent)
chain: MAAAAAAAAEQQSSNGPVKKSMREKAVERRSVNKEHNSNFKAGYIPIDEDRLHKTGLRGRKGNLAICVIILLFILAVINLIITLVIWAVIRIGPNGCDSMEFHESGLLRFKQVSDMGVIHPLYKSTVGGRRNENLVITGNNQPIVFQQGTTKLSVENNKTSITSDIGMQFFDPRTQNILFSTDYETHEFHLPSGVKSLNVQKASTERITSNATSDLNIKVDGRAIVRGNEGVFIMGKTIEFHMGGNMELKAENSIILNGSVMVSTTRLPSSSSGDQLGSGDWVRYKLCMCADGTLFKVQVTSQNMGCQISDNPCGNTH

# Variants of: B1
# assay_remarks: SGCB cell-surface expression functional score (HA stain, bin4 vs bin1, normalised to synonymous) (log10 ratio); higher = more cell-surface SGCB (functional)
quantity: SGCB cell-surface expression functional score (log10)
Answer field: number only, no words.

Here's what some known entries look like.
- mutation_code: "S264W"
  value_reported: -0.2
- mutation_code: "Q308V"
  value_reported: -0.04
- mutation_code: "G59V"
  value_reported: 0.33
- mutation_code: "F40V"
  value_reported: 0.27

Let us move to another entry and its SGCB cell-surface expression functional score (log10).
I am curious: what SGCB cell-surface expression functional score (log10) value has been reported for L107G ?
-0.26
